The measured values listed here are drawn from patent US12102644B2.

Tested on: mouse epiblast stem cell-derived OPCs
assay.info: In vitro OPC differentiation assay (percentage of MBP+ oligodendrocytes, high-content imaging)
Assay type: cell-based
applied.conditions: OPC-5 and OPC-1, 72 h; read-out: EC50 for enhancing oligodendrocyte formation
pEC50: −log10 of the molar value.
experimental.readout: pEC50

>>> measured_value("CC(C)=CCC[C@@H](C)[C@H]1CC[C@H]2C3=C(CC[C@]12C)[C@@]1(C)CC(C)(C)[C@H](O)C[C@@H]1CC3 [2,2-dimethylzymosterol]")
"5.70 to 6.00"
